The reported measurements were obtained from PubChem BioAssay (NCATS).

TEST DETAILS: Quantitative High-Throughput drug screen in 47 multiple myeloma cell lines against the NCATS MIPE library collection: PE2_PLB cell viability assay (AID 1919869); further: nearly all actives have a fitted effect of over 35% in size
CONDITION: PE2_PLB myeloma cells viability, ATP luminescence, 48 h; series mostly up to 45.8 µM
Results filed as inconclusive are left out. Active and inactive are the calls of the source. The call rests on the fitted dose curve; in most records, active means well fitted cell-killing curve with a large enough effect; inconclusive means small, poorly fitted or top-dose-only effect, or effect the other way; inactive means no such curve, though single readings can be large or run the other way.
Possible outcomes: t for active, f for inactive

- CCOc1cc2ncc(C#N)c(Nc3ccc(F)c(Cl)c3)c2cc1NC(=O)C=CCN(C)C: t
- COC(=O)[C@]12CCC(C)(C)C[C@@H]1[C@@H]1C(=O)C=C3[C@@]4(C)C=C(C#N)C(=O)C(C)(C)[C@@H]4CC[C@@]3(C)[C@]1(C)CC2: t
- Nc1ccc(S(=O)(=O)Nc2ncccn2)cc1: f
- Cc1cc(Nc2cc(CN3CCOCC3)c3nc(C)c(Cc4ccc(Cl)cc4F)n3n2)n[nH]1: t
- COc1ccc(C(=O)CC2(O)C(=O)Nc3c(Cl)ccc(Cl)c32)cc1 (configuration not stated): t
- COc1cc2ncnc(Nc3ccc(F)c(Cl)c3)c2cc1NC(=O)C=CCN1CCCCC1: t
- CCCCCCCCCC(=O)N[C@@H](Cc1c[nH]c2ccccc12)C(=O)N[C@H](CC(N)=O)C(=O)N[C@@H](CC(=O)O)C(=O)N[C@@H]1C(=O)NCC(=O)N[C@@H](CCCN)C(=O)N[C@@H](CC(=O)O)C(=O)N[C@H](C)C(=O)N[C@@H](CC(=O)O)C(=O)NCC(=O)N[C@H](CO)C(=O)N[C@@H]([C@@H](C)CC(=O)O)C(=O)N[C@@H](CC(=O)c2ccccc2N)C(=O)O[C@@H]1C: f
- Nc1ccc(C(=O)c2cc3c(ccc4ccccc43)[nH]2)cc1: t
- COC(=O)Nc1ccc(-c2nc(N3CCOCC3)c3cnn(C4CCN(Cc5cccnc5)CC4)c3n2)cc1: t
- N#Cc1c(O)c2c(-c3ccc(-c4ccccc4O)cc3)csc2[nH]c1=O: f
- C[C@@]12O[C@@H](C[C@]1(O)CO)n1c3ccccc3c3c4c(c5c6ccccc6n2c5c31)CNC4=O: t
- COc1c(OCCCN2CCOCC2)ccc2c3n(c(=NC(=O)c4cnc(N)nc4)nc12)CCN3: t
- COc1cc(C)c(Sc2cnc(NC(=O)c3ccc(CNC(C)C(C)C)cc3)s2)cc1C(=O)N1CCN(C(C)=O)CC1 (configuration not stated): t
- Nc1ncnc2c1c(-c1cnc3[nH]ccc3c1)nn2C1CCCC1: t
- C1Cc2[nH]nc(-c3nn[nH]n3)c2C1: f
- OCCCNc1cc(-c2ccnc(Nc3cccc(Cl)c3)n2)ccn1: t
- Nc1nc(NCCNc2ncc(-n3ccnc3)c(-c3ccc(Cl)cc3Cl)n2)ccc1[N+](=O)[O-]: t
